Below is a list of entries, each paired with its recorded Viability (%) at different lipid concentrations, mean value.
# System: HepG2 cell line
# assaySummary: In vitro toxicity study on HepG2 cell line (resazurin, viability and IC50)
# Format: cell-based, human
# conditionSet: HepG2 cells, 25 μM lipid, 48 h post-treatment, resazurin, relative to ethanol vehicle controls
# Protocol: The synthesized lipids were tested in term of in vitro transfection efficacy and toxicity on HeLa cells. In order to perform the mentioned biological tests, appropriate LNPs had to be formulated from the synthesized lipids. The formulation technique was different in Method A and B. The particle size, polydispersity index (PDI) and zeta potential of resulting LNPs were determined by means of Dynamic Light Scattering technique (DLS). […]
Report the value in % with no unit label.

Below, 4 compounds whose answers are already recorded.
* CCCCC/C=C\C/C=C\CCCCCCCCOC(CCCCCCC/C=C\C/C=C\CCCCC)O[Si](C)(C)OCCCCCCN1CCCCC1 (stereo not shown) | 93.2
* CCCCCCCC/C=C\CCCCCCCCOC(=O)C(C)(C)CC(OCCCCCCCC/C=C\CCCCCCCC)O[Si](C)(C)OCCCCCCN(CCCO)CCCO (stereo not shown) | 109.5
* CCCCC/C=C\C/C=C\CCCCCCCC(OCCCCCCCC/C=C\CCCCCCCC)O[Si](C)(C)OCCCCCCN(CCO)CCO (stereo not shown) | 100.4
* CCCCC/C=C\C/C=C\CCCCCCCCOC(CCCCCCC/C=C\C/C=C\CCCCC)O[Si](C)(C)OCCCCCCN(C)[C@H](CO)Cc1ccccc1 (stereo partly shown) | 101.0

-- ask Report Viability (%) at different lipid concentrations, mean under test system HepG2 cell line for CCCCCCCC/C=C\CCCCCCCCOC(=O)C(C)(C)CC(OCCCCCCCC/C=C\CCCCCCCC)O[Si](C)(C)OCCCCCCN1CCOCC1 (stereo not shown) .
-- reply 101.4

-- ask Report Viability (%) at different lipid concentrations, mean under test system HepG2 cell line for CCCCCCCC/C=C\CCCCCCCCOC(CCCCCCCCCCCCCCC)O[Si](C)(C)OCCCCCCN(CCO)CCO (stereo not shown) .
-- reply 102.6

-- ask Report Viability (%) at different lipid concentrations, mean under test system HepG2 cell line for CCCCCCCC/C=C\CCCCCCCCOC(=O)C(C)(C)CC(OCCCCCCCC/C=C\CCCCCCCC)O[Si](C)(C)OCCCCCCN(C)CCO (stereo not shown) .
-- reply 105.2

-- ask Report Viability (%) at different lipid concentrations, mean under test system HepG2 cell line for CCCCCCCC/C=C\CCCCCCCC(OCCCCCCCCCCCCCCCC)O[Si](C)(C)OCCCCCCN(CCO)CCO (stereo not shown) .
-- reply 98.9

-- ask Report Viability (%) at different lipid concentrations, mean under test system HepG2 cell line for CCCCCCCC/C=C\CCCCCCCCOC(=O)C(C)(C)CC(OCCCCCCCC/C=C\CCCCCCCC)O[Si](C)(C)OCCCCCCN(C)CC(O)CO (stereo not shown) .
-- reply 110.6

-- ask Report Viability (%) at different lipid concentrations, mean under test system HepG2 cell line for C#CCN(C)CCCCCCO[Si](C)(C)OC(CC(C)(C)C(=O)OCCCCCCCC/C=C\CCCCCCCC)OCCCCCCCC/C=C\CCCCCCCC (stereo not shown) .
-- reply 95.5

-- ask Report Viability (%) at different lipid concentrations, mean under test system HepG2 cell line for CCCCCCCC/C=C\CCCCCCCCOC(=O)C(C)(C)CCC(OCCCCCCCC/C=C\CCCCCCCC)O[Si](C)(C)OCCCCCCN1CCOCC1 (stereo not shown) .
-- reply 98.4

-- ask Report Viability (%) at different lipid concentrations, mean under test system HepG2 cell line for CCCCC/C=C\C/C=C\CCCCCCCCOC(CCCCCCC/C=C\C/C=C\CCCCC)O[Si](C)(C)OCCCCCCN(CCCO)CCCO (stereo not shown) .
-- reply 116.5

-- ask Report Viability (%) at different lipid concentrations, mean under test system HepG2 cell line for CCCCCCCC/C=C\CCCCCCCCOC(=O)C(C)(C)CC(OCCCCCCCC/C=C\CCCCCCCC)O[Si](C)(C)OCCCCCCN(CCO)CCN(CCO)CCCCCCO[Si](C)(C)OC(CC(C)(C)C(=O)OCCCCCCCC/C=C\CCCCCCCC)OCCCCCCCC/C=C\CCCCCCCC (stereo not shown) .
-- reply 97.36

----------
Below is a list of entries, each paired with its recorded EE (%) value.
# assaySummary: Encapsulation efficiency of loaded LNPs, RiboGreen RNA assay (Method A)
# Format: physicochemical
# conditionSet: encapsulation efficiency of mRNA-loaded LNP, Method A, RiboGreen
# Description: The synthesized lipids were tested in term of in vitro transfection efficacy and toxicity on HeLa cells. In order to perform the mentioned biological tests, appropriate LNPs had to be formulated from the synthesized lipids. The formulation technique was different in Method A and B. The particle size, polydispersity index (PDI) and zeta potential of resulting LNPs were determined by means of Dynamic Light Scattering technique (DLS). […]
Report the value in % with no unit label.

Below, 3 molecules whose answers are already recorded.
- CCCCC/C=C\C/C=C\CCCCCCCCOC(CC[C@@H](C)C1CCC2C3CCC4C[C@H](OC)CC[C@]4(C)C3CC[C@@]21C)O[Si](C)(C)OCCCCCCN(CCO)CCO (some centres unmarked): 86
- CCCCC/C=C\C/C=C\CCCCCCCCOC(CCCCCN(CCO)CCO)O[Si](C)(C)OCCCCCCCC/C=C\C/C=C\CCCCC (centres unmarked): 87
- CCCCCCCC/C=C\CCCCCCCCOC(=O)C(C)(C)CC(OCCCCCCCC/C=C\CCCCCCCC)O[Si](C)(C)OCCCCCCN(CCCCO)CCCCO (centres unmarked): 87

-- ask Find the measured EE (%) of CCCCC/C=C\C/C=C\CCCCCCCCOC(CCCCCCC/C=C\C/C=C\CCCCC)O[Si](C)(C)OCCCCCCN(CCO)CCN(CCO)CCCCCCO[Si](C)(C)OC(CCCCCCC/C=C\C/C=C\CCCCC)OCCCCCCCC/C=C\C/C=C\CCCCC (centres unmarked) and report it.
-- reply 84

-- ask Find the measured EE (%) of CCCCCCCC/C=C\CCCCCCCCOC(=O)C(C)(C)CC(OCCCCCCCC/C=C\CCCCCCCC)O[Si](C)(C)OCCCCCCN(CCCO)CCCO (centres unmarked) and report it.
-- reply 87

----------
# assaySummary: Encapsulation efficiency of loaded LNPs, RiboGreen RNA assay (Method A)
# Format: physicochemical
# conditionSet: encapsulation efficiency of mRNA-loaded LNP, Method A, RiboGreen
Below is a list of entries, each paired with its recorded EE (%) value.
A complete answer gives the number and then names the unit.

Below, 3 molecules whose answers are already recorded.
- CCCCC/C=C\C/C=C\CCCCCCCCOC(CCCCCCC/C=C\C/C=C\CCCCC)O[Si](C)(C)OCCCCCCN1CCCCC1CO (stereo not shown): 85%
- CCCCC/C=C\C/C=C\CCCCCCCCOC(CCCCCCC/C=C\C/C=C\CCCCC)O[Si](C)(C)OCCCCCCN(C)CCCCO (stereo not shown): 84%
- CCCCC/C=C\C/C=C\CCCCCCCCOC(CCCCCCC/C=C\C/C=C\CCCCC)O[Si](C)(C)OCCCCCCN(C)[C@H](CO)Cc1ccccc1 (stereo partly shown): 85%

-- ask Find the measured EE (%) of CCCCCCCC/C=C\CCCCCCCCOC(=O)C(C)(C)CC(OCCCCCCCC/C=C\CCCCCCCC)O[Si](C)(C)OCCCCCCN1CCOCC1 (stereo not shown) and report it.
-- reply 90%

-- ask Find the measured EE (%) of CCCCCCCC/C=C\CCCCCCCC(OCC(CCCCCCCC)SCCCCC)O[Si](C)(C)OCCCCCCN(CCO)CCO (stereo not shown) and report it.
-- reply 87%

-- ask Find the measured EE (%) of CCCCC/C=C\C/C=C\CCCCCCCC(OCCCCCCCC/C=C\CCCCCCCC)O[Si](C)(C)OCCCCCCN(CCO)CCO (stereo not shown) and report it.
-- reply 82%

-- ask Find the measured EE (%) of CCCCC/C=C\C/C=C\CCCCCCCCOC(CCCCCCC/C=C\C/C=C\CCCCC)O[Si](C)(C)OCCCCCCN1CCN(CCCCCCO[Si](C)(C)OC(CCCCCCC/C=C\C/C=C\CCCCC)OCCCCCCCC/C=C\C/C=C\CCCCC)CC1 (stereo not shown) and report it.
-- reply 81%

-- ask Find the measured EE (%) of C#CCN(C)CCCCCCO[Si](C)(C)OC(CCCCCCC/C=C\C/C=C\CCCCC)OCCCCCCCC/C=C\C/C=C\CCCCC (stereo not shown) and report it.
-- reply 88%

-- ask Find the measured EE (%) of CCCCCCCC/C=C\CCCCCCCC(OCC(CCCCCCCC)SCCCCCCCCCC)O[Si](C)(C)OCCCCCCN(CCO)CCO (stereo not shown) and report it.
-- reply 87%

-- ask Find the measured EE (%) of CCCCC/C=C\C/C=C\CCCCCCCCOC(CCCCCCC/C=C\CCCCCCCC)O[Si](C)(C)OCCCCCCN(CCO)CCO (stereo not shown) and report it.
-- reply 81%

-- ask Find the measured EE (%) of CCCCCCCC/C=C\CCCCCCCCOC(=O)C(C)(C)CC(OCCCCCCCC/C=C\CCCCCCCC)O[Si](C)(C)OCCCCCCN(C)CCO (stereo not shown) and report it.
-- reply 88%

-- ask Find the measured EE (%) of CCCCCCCC/C=C\CCCCCCCCOC(CC[C@@H](C)C1CCC2C3CCC4C[C@H](OC)CC[C@]4(C)C3CC[C@@]21C)O[Si](C)(C)OCCCCCCN(CCO)CCO (stereo partly shown) and report it.
-- reply 89%

-- ask Find the measured EE (%) of CCCCCCCC/C=C\CCCCCCCC(OCCCCCCCCCCCCCCCC)O[Si](C)(C)OCCCCCCN(CCO)CCO (stereo not shown) and report it.
-- reply 87%
